meta.source: PubChem BioAssay (NCI)

Form field: TGI (one value per entry).
- System: LOX IMVI melanoma
- Assay Remarks: NCI tumour cell line growth inhibition, 48 h

Cc1ccc([N+](=O)[O-])cc1S(=O)(=O)Nc1ccc(C(=O)/C=C/c2cccs2)cc1 :: 45.2 µM

Input: Quick one: TGI of "O=C1c2ccccc2-c2nnc(-c3ccc(Br)cc3)cc21" ?
Output: > 100 µM

Input: # repeat for "O=C(O)/C(=C/C(=O)c1ccc(Cl)cc1)NNc1ccc([N+](=O)[O-])cc1[N+](=O)[O-]"
Output: > 100 µM

Input: Same thing, different molecule: "c1ccc2c(c1)nc1n2sc2nc3ccccc3n21"
Output: > 100 µM

Input: Can you check "CCOC(=O)[C@H]1O[C@@H]1C(=O)N[C@@H](CC(C)C)C(=O)NCCc1ccc(O)cc1" next?
Output: > 100 µM

Input: How about COc1ccc2[nH]c(S(=O)(=O)N3CC(CCl)c4ccc(N)cc43)cc2c1 (stereo not given) ?
Output: 17.7 µM

Input: What would you report for CC1CC2OC(=O)CC2C[C@@H]1O[Si](C)(C)C(C)(C)C (stereo not given in full) ?
Output: > 100 µM

Input: Try O=c1[nH]c(=O)n(C2CC(O)C(CO)O2)c2nc3cc4ccccc4cc3nc12 (stereo not given) next.
Output: > 100 µM
